TEST METHOD NOTES: Cell viability assay
Assay type: cell-based
STUDY CONDITIONS: human
MEASURED QUANTITY: CC50 (µM)
Dear colleague, please return just the value in µM, with no unit written.

Can you share its CC50? I mean this compound: CC(C)(C)OC(=O)N[C@H]1CCCCC/C=C\[C@@H]2C[C@@]2(C(=O)NS(=O)(=O)C2CC2)NC(=O)[C@@H]2C[C@@H](OC(=O)N3Cc4cccc(F)c4C3)CN2C1=O [Danoprevir]
100

* * *

System: Huh7.5 cell viability
TEST METHOD NOTES: Cell viability assay
Format: cell-based
STUDY CONDITIONS: read-out: CC50 (concentration needed to reduce cell viability by 50%); Huh7.5 cells
MEASURED QUANTITY: CC50

Could you tell me which CC50 is on file for Cc1ccc2nc(-c3ccc4nc(-c5ccc(NC(=O)c6cc(C(F)(F)F)cc(C(F)(F)F)c6)cc5)sc4c3)sc2c1S(=O)(=O)O.N [HPI] ?
> 100 µM

Provenance of the data: paper PMC4546510
